target system: purified human IL-1β pro enzyme (Homo sapiens)
Construct: beginning with amino acid 120; Based upon a molecular weight analysis, the approximate C-terminus of mature IL-1β pro is about amino acid 297; endogenous in cells; host or cells: THP-1 cells (ATCC), stimulated, lysed, six-step chromatography
Sequence (P29466 120-297): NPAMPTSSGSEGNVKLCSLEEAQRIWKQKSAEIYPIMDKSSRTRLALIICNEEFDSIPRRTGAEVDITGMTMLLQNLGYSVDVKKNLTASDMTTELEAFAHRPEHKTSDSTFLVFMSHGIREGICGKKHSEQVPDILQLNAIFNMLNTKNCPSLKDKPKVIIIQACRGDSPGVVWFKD
Sequence (P29466 317-404): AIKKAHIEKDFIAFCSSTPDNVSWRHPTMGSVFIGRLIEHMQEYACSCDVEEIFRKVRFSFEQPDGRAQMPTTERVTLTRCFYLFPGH
method description: Cleavage of synthetic peptide substrates by purified human IL-1β pro enzyme (RP-HPLC)
Type: biochemical
Set-up: key: reactivity relative to peptide Ala112–Ser121 of precursor IL-1β
test conditions: Table 2; effect of substrate peptide length; conducted as in Example 1
recorded endpoint: Reactivity Relative To Peptide 1
// keep it numeric: no unit symbol after the value

substance="Glu-Ala-Tyr-Val-His-Asp-Ala-Pro- (Seq. I.D. No. 21) (EAYVHDAPVRSL) [Peptide 9, substrate peptide of the precursor IL-1β cleavage site]" assay_result=0.74

Inquiry: Quick one: Reactivity Relative To Peptide 1 for Tyr-Val-His-Asp-Ala-Pro-Val-Arg- (Seq. I.D. No. 22) (Ac-YVHDAPVR-NH2) [Peptide 10, eight amino acid substrate peptide] ?
Reply text: 2.40

Attribution: patent US6995141B1
